Target: GDP-bound KRAS protein (aa 1-169), containing both G12C and C118A amino acid substitutions (Homo sapiens, UniProt P01116, C118A/G12C)
Sequence (P01116 1-169 isoform P01116-2 G12C/C118A): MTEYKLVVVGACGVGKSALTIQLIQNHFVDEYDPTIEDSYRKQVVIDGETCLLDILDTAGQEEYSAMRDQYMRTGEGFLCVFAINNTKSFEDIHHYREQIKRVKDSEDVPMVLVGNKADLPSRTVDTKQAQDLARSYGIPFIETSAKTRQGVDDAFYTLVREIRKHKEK
Test: Coupled nucleotide exchange assay (SOS-mediated, AlphaScreen)
Type: biochemical
Details: 5 min compound pre-incubation
Quick reference for Coupled exchange IC50 (5 min) among some compounds

1. C=CC(=O)N1CCN(c2nc(=O)n(-c3c(C)cc(N)nc3C(C)C)c3nc(-c4ccccc4F)c(Cl)cc23)[C@@H](C)C1    0.135 | nda μM
2. C=CC(=O)N1CCN(c2nc(=O)n(-c3ccccc3S(F)(F)(F)(F)F)c3nc(-c4c(O)cccc4F)c(Cl)cc23)[C@@H](C)C1 [Example 56-1]    0.149 | nda μM
3. C=CC(=O)N1CCN(c2nc(=O)n(-c3c[nH]nc3C3CC3)c3nc(-c4c(O)cccc4F)c(Cl)cc23)[C@@H](C)C1    0.444 | nda μM
4. C=CC(=O)N1CCN(c2nc(=O)n(-c3c(C(C)C)ncnc3C(C)C)c3nc(-c4ccccc4F)c(F)cc23)[C@@H](C)C1    0.221 | nda μM
5. C=CC(=O)N1CCN(c2nc(=O)n(-c3c(C)nc(C)nc3C(C)C)c3nc(-c4c(O)cccc4F)c(Cl)cc23)[C@@H](C)C1 (single isomer, unassigned) [Example 55-4-2]    0.642 | nda μM

Next compound, Coupled exchange IC50 (5 min) to be filled in.
Entry C=CC(=O)N1CCN(c2nc(=O)n(-c3ccccc3C(C)C)c3nc(-c4c(O)cccc4Cl)c(Cl)cc23)[C@@H](C)C1 has what Coupled exchange IC50 (5 min)?
0.072 | nda μM

====

Listed here are compounds together with their documented Coupled exchange IC50 (5 min).
Molecular target: GDP-bound KRAS protein (aa 1-169), containing both G12C and C118A amino acid substitutions (Homo sapiens, UniProt P01116, C118A/G12C)
Assay: Coupled nucleotide exchange assay (SOS-mediated, AlphaScreen)
Type: biochemical
Details: 5 min compound pre-incubation

# count of solved cases: 3
1) C=CC(=O)N1CCN(c2nc(=O)n(-c3c(C)cccc3C(C)C)c3nc(-c4nc(N)ccc4F)c(Cl)cc23)[C@@H](C)C1    0.398 | nda μM
2) C=CC(=O)N1CCN(c2nc(=O)n(-c3c(C)cc(CN(C)C)cc3C(C)C)c3nc(-c4ccccc4F)c(Cl)cc23)[C@@H](C)C1 (single isomer, unassigned) [Example 80-1-1]    0.044 | nda μM
3) C=CC(=O)N1CCN(c2nc(=O)n(-c3ncccc3C3CC3)c3nc(-c4ccccc4F)c(Cl)cc23)[C@@H](C)C1    0.422 | nda μM

Fill blank: measured Coupled exchange IC50 (5 min) of the compound C=CC(=O)N1CCN(c2nc(=O)n(-c3nccnc3C(C)C)c3nc(-c4ccccc4F)c(F)cc23)[C@@H](C)C1 is ____.
0.74 | nda μM

# iterate: C=CC(=O)N1CCN(c2nc(=O)n(-c3ccccc3S(C)(=O)=O)c3nc(-c4c(O)cccc4F)c(Cl)cc23)[C@@H](C)C1 [Example 54-56]
1.42 | nda μM

And then C=CC(=O)N1CCN(c2nc(=O)n(-c3c(C(C)C)nc(C)nc3C(C)C)c3nc(-c4ccccc4F)c(Cl)cc23)[C@@H](C)C1 , what is it?
0.045 | nda μM

====

Target: GDP-bound KRAS protein (aa 1-169), containing both G12C and C118A amino acid substitutions (Homo sapiens, UniProt P01116, C118A/G12C)
Experiment: Coupled nucleotide exchange assay (SOS-mediated, AlphaScreen)
Type: biochemical
Conditions: 5 min compound pre-incubation
Property: Coupled exchange IC50 (5 min); scope: individual compounds

1. C=CC(=O)N1CCN(c2nc(=O)n(-c3scnc3C3CC3)c3nc(-c4c(O)cccc4F)c(Cl)cc23)[C@@H](C)C1 [Example 56-3]    3.85 | nda μM

Need Coupled exchange IC50 (5 min) of C=CC(=O)N1CCN(c2nc(=O)n(-c3c(CC)cccc3CC)c3nc(-c4c(F)cccc4F)c(Cl)cc23)[C@@H](C)C1 [Example 54-65] , thanks.
0.253 µM

Next compound: C=CC(=O)N1C[C@@H](C)N(c2nc(=O)n(-c3c(C)ccnc3C(C)C)c3nc(-c4c(N)cccc4F)c(Cl)cc23)[C@@H](C)C1 (atropisomer, axis not shown; (M)) [Example 73-12]
0.01 | nda μM

For C=CC(=O)N1CCN(c2nc(=O)n(-c3c(C)cc(CO)cc3C(C)C)c3nc(-c4ccccc4F)c(Cl)cc23)[C@@H](C)C1 (single isomer, unassigned) [Example 80-2-1] then?
0.824 | nda μM

Now give it for C=CC(=O)N1CCN(c2nc(=O)n(-c3ccccc3C(C)C)c3nc(C4=CCCCC4)c(Cl)cc23)[C@@H](C)C1 (single isomer, unassigned) [Example 54-75-2] too.
10.6 | nda μM

====

Each entry below carries its reported Coupled exchange IC50 (5 min).
Target: GDP-bound KRAS protein (aa 1-169), containing both G12C and C118A amino acid substitutions (Homo sapiens, UniProt P01116, C118A/G12C)
Experiment: Coupled nucleotide exchange assay (SOS-mediated, AlphaScreen)
Format: biochemical
Conditions: 5 min compound pre-incubation

Worked set:
1) C=CC(=O)N1CCN(c2nc(=O)n(-c3c(C)ccnc3C(C)C)c3nc(-c4ccccc4F)c(C)cc23)[C@@H](C)C1 (single isomer, unassigned) [Example 74-2-2]    2.325 | nda μM
2) C=CC(=O)N1CCN(c2nc(=O)n(-c3ccccc3C(C)C)c3nc(-c4cc(O)cc(Cl)c4Cl)c(Cl)cc23)[C@@H](C)C1 [Example 54-91]    0.033 | nda μM
3) C=CC(=O)N1C[C@H](C)N(c2nc(=O)n(-c3c(C)ccnc3C(C)C)c3nc(Cl)c(Cl)cc23)[C@@H](C)C1 (atropisomer, axis not shown; (M))    0.711 | nda μM
4) C=CC(=O)N1CCN(c2nc(=O)n(-c3ccccc3C(C)(C)C)c3nc(-c4c(O)cccc4F)c(F)cc23)[C@@H](C)C1 [Example 58-1]    0.661 | nda μM
5) C=CC(=O)N1CCN(c2nc(=S)n(-c3c(CC)cccc3CC)c3cc(-c4ccccc4F)c(Cl)cc23)[C@@H](C)C1    0.232 | nda μM
6) C=CC(=O)N1CCN(c2nc(=O)n(-c3c(C)ccnc3C(C)C)c3nc(-c4cc(C)ccc4F)c(Cl)cc23)[C@@H](C)C1 (atropisomer, axis not shown; (M))    0.031 | nda μM
7) C=CC(=O)N1CCN(c2nc(=O)n(-c3c(C(C)C)cccc3N(C)C)c3nc(-c4ccccc4F)c(Cl)cc23)[C@@H](C)C1 [Example 54-104]    0.09 | nda μM
8) C=CC(=O)N1CCN(c2nc(=O)n(-c3c(CC)cccc3CC)c3nc(N4CCC(C)C4)c(Cl)cc23)[C@@H](C)C1 (stereo partly shown)    26.4 | nda μM
9) C=CC(=O)N1CCN(c2nc(=O)n(-c3c(C)ccnc3CC)c3nc(-c4c(O)cccc4F)c(F)cc23)[C@@H](C)C1 (single isomer, unassigned) [Example 57-1-1]    0.524 | nda μM
10) C=CC(=O)N1CCN(c2nc(=O)n(-c3c(C(N)=O)cccc3C(C)C)c3nc(-c4ccccc4F)c(Cl)cc23)[C@@H](C)C1 (single isomer, unassigned) [Example 142-2]    0.029 | nda μM

State the recorded Coupled exchange IC50 (5 min) for this entry: C=CC(=O)N1CCN(c2nc(=O)n(-c3c(C(C)C)ccnc3C)c3nc(-c4ccccc4F)c(F)cc23)[C@@H](C)C1 [Example 58-16]
0.553 | nda μM

Check C=CC(=O)N1CCN(c2nc(=O)n(Cc3ccc(OC)cc3)c3nc(-c4c(O)cccc4F)c(Cl)cc23)[C@@H](C)C1 too.
3.07 | nda μM

Please do the same for C=CC(=O)N1CCN(c2nc(=O)n(-c3c(C)ccnc3C(C)C)c3nc(-c4cc(C#N)ccc4F)c(Cl)cc23)[C@@H](C)C1 (atropisomer, axis not shown; (M)) as well.
0.184 | nda μM

Then this compound: C=CC(=O)N1CCN(c2nc(=O)n(-c3c(Cl)cccc3C(C)C)c3nc(-c4c(O)cccc4F)c(F)cc23)[C@@H](C)C1 (single isomer, unassigned) [Example 57-15-2]
0.841 | nda μM

Now the same for C=CC(=O)N1CCN(c2nc(=O)n(-c3ccccc3Cl)c3nc(-c4c(O)cccc4F)c(Cl)cc23)[C@@H](C)C1
0.582 | nda μM

====

Biological target: GDP-bound KRAS protein (aa 1-169), containing both G12C and C118A amino acid substitutions (Homo sapiens, UniProt P01116, C118A/G12C)
Assay: Coupled nucleotide exchange assay (SOS-mediated, AlphaScreen)
Type: biochemical
Settings: 5 min compound pre-incubation
Coupled exchange IC50 (5 min): recorded values

Recorded Coupled exchange IC50 (5 min), per entry:
1. C=CC(=O)N1CCN(c2nc(=O)n(-c3c(C)ccnc3CC)c3nc(-c4c(O)cccc4F)c(Cl)cc23)[C@@H](C)C1 [Example 55-10]    0.123 | nda μM
2. C=CC(=O)N1CCN(c2nc(=O)n(-c3c(C)ccnc3C(C)C)c3nc(-c4ccccc4F)c(Cl)cc23)CC1 (single isomer, unassigned)    0.124 | nda μM

Name the reported Coupled exchange IC50 (5 min) value associated with the compound C=CC(=O)N1CCN(c2nc(=O)c(-c3ccccc3C)c3cc(-c4ccccc4F)c(C)nn23)[C@@H](C)C1
77.7 | nda μM

Now consider C=CC(=O)N1CCN(c2nc(=O)n(-c3ccccc3C(C)C)c3nc(-c4ncc(F)cc4F)c(Cl)cc23)[C@@H](C)C1 and answer again.
1.43 | nda μM

Can you check C=CC(=O)N1CCN(c2nc(=O)n(-c3c(CO)cccc3C(C)C)c3nc(-c4ccccc4F)c(Cl)cc23)[C@@H](C)C1 (single isomer, unassigned) [Example 55-43-1] next?
2.87 | nda μM

Proceed to C=CC(=O)N1CCN(c2nc(=O)n(-c3ccccc3CC)c3nc(-c4ccccc4F)c(Cl)cc23)[C@@H](C)C1
0.395 | nda μM
